# SYSTEM: T1, Myo5, Q04439
# T1 sequence (Q04439 1072-1160, looked up): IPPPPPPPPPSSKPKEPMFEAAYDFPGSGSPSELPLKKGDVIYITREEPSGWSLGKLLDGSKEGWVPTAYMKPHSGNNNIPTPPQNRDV
# MEASUREMENT DESCRIPTION: SPOT array
# PARTICULARS: median of control spots 471
QUANTITY NAME: SPOT intensity

Previously resolved entries follow.
* FPGKKSPRLPHRNKK | 0
* NFKRLLPRDPSEKSS | 0
* APKHAPPPVPNETDN | 239

1. RAPPPVPKKPSSRIA
2. PSPSSSPPPIPKTAN
3. STKKPRPPVKSKPKH
4. RSVKRPRRAPRPVVS
(Q) Rank descending by SPOT intensity. Please list the labels in the order you were asked to rank them.
(A) 2, 1, 4, 3

Source: paper PMC2756588
